// data source = PubChem BioAssay (NCI)

Would you kindly list growth for each of these compounds?
- Tested on: MDA-MB-231 breast
- procedure summary: NCI-60 one-dose screen, 48 h (100 = growth as untreated, 0 = no growth, -100 = all killed)
- condition summary: 10 µM unless noted
About 83,000 compounds went through this panel and 20% of them were active in at least one assay; those are over-represented in the sample as a whole.
Answers are plain numbers, in %.

Before answering, review these 6 worked examples.
compound | assayed target | growth / %
CCN(CC)CCCC(Nc1c2ccc(Cl)cc2nc2ccc(OC)cc12)c1ccc(Cl)cc1 (stereo not given) | MDA-MB-231 breast | -59.1
CCOC(=O)c1c(O)cc(-c2ccccc2)cc1-c1sc(N(C)Cc2ccccc2)nc1Cl | MDA-MB-231 breast | 103
COc1cc2nc(-c3ccc(C#N)cc3)[nH]c(=O)c2cc1OC | MDA-MB-231 breast | 94
O=C(O)c1cn(C2CC2)c2cc(N3CCN(C(=O)C[n+]4cccc5ccccc54)CC3)c(F)cc2c1=O | MDA-MB-231 breast | 99.8
COc1ccccc1OCC(=O)N1CCCCCC1 | MDA-MB-231 breast | 113
CC1(C)CCCN1CCCN1c2ccccc2Sc2ccc(Cl)cc21 | MDA-MB-231 breast | 45.5

# per-item lookup of growth; items listed below
1. CCCCCCCCCCCC(=O)C(CCCCCCCCCC)C(=O)Nc1ccccc1 (stereo not given)
2. O=C1NC(=S)NC(=O)C1=Cc1cn(Cc2ccccn2)c2ccccc12
3. CCN(CC)CCCC(C)Nc1cc(-c2cccc(OC(F)(F)F)c2)nc2ccc(N3CCCC3)cc12 (stereo not given)
4. COc1ccc(NC(=O)c2sc3nc(C)c(C(=O)CCc4cccc(OC)c4)cc3c2N)cc1

1: 91.2; 2: 53.3; 3: -50.3; 4: 85.8

* * *

- Tested on: NCI-H23 lung
- procedure summary: NCI-60 one-dose screen, 48 h (100 = growth as untreated, 0 = no growth, -100 = all killed)
- condition summary: 10 µM unless noted
About 83,000 compounds went through this panel and 20% of them were active in at least one assay; those are over-represented in the sample as a whole.
So I've got a bunch of molecules here, and I need their growth values.
Numbers only, in %.

See these solved cases before continuing.
molecule | assayed target | growth [%]
COc1cc(-c2cc(=O)oc3cc(O)ccc23)c(OC)c2c1OCO2 | NCI-H23 lung | 83.5
O=C(N/N=C/c1ccc(O)c(O)c1)c1sc2ccccc2c1Cl | NCI-H23 lung | 97
O=C(O)/C=C\C(=O)N1C/C(=C\c2ccccc2Cl)C(=O)/C(=C/c2ccccc2Cl)C1 | NCI-H23 lung | -24.9
FC(F)(F)c1cccc(Nc2ccccc2)c1 | NCI-H23 lung | 94.2
O=C1Nc2c(ccc(Cl)c2Cl)/C1=C/c1ccc(O)cc1 | NCI-H23 lung | 86.7

Report growth for each item below.
1. C=C1C(=O)O[C@H]2[C@H]1CC/C(COC(=O)CCCc1c[nH]c3ccccc13)=C\CC[C@@]1(C)O[C@@H]21
2. CC(C)C1C2=C(NCCN1C(=O)Cc1ccccc1)C(C)(C)N(Cc1ccccc1)C2=O (stereo unspecified)
3. N#CC1=C(N)Oc2c(ccc3ccccc23)C1c1ccc([N+](=O)[O-])cc1 (stereo unspecified)
4. COc1cc(/C=C/C(=O)c2c(C)oc3nc[nH]c(=O)c23)ccc1O
5. C(=N\Nc1ncc(-c2cc3cc4c(cc3o2)OCO4)s1)/c1c[nH]c2ccccc12
6. Cn1c(COC(=O)NCCc2ccccn2)nc2c(N3CCOCC3)nc(Cl)nc21
7. O=C(N/N=C/c1cccc(O)c1)c1ccccc1Nc1cccc(C(F)(F)F)c1
8. O=S(=O)(NCCNc1nccc(-c2c(-c3ccc(F)c(O)c3)nc3sccn23)n1)c1ccccc1

1. 65.9
2. 97.4
3. 79.1
4. 98.7
5. -25.8
6. 16.9
7. 96.4
8. 72.2

// for each molecule in input: emit growth
1. Fc1ccc(C2CC(c3cccc(Nc4ccncc4)c3)=NN2c2ccccc2)cc1 (stereo unspecified)
2. C=C(C)[C@@H]1CC[C@]2(C(=O)O)CC[C@]3(C)[C@H](CC[C@@H]4[C@@]5(C)C[C@@H](CC#Cc6ccc(Br)cc6)C(=O)C(C)(C)[C@@H]5CC[C@]43C)[C@@H]12
3. COc1nccnn1
4. COc1ccc(/C=C/C(=O)c2ccc(Nc3ncnc4ccccc34)cc2)cc1OC

86.3
31.2
107
73.3
